All values here come from patent US9840513B2.

List of Maximum % activity (%) values.
- System Tested: F508delCFTR cell surface expression in CFBE41o-F508delCFTR-HRP cells (Homo sapiens, UniProt P13569, DEL508-508)
- Construct: fused on or other part: Horseradish peroxidase (HRP) reporter inserted in the fourth exofacial (extracellular) loop of CFTR; expression is doxycycline-inducible
- Sequence (P13569 with tags, fused parts or gaps DEL508-508 limits assumed): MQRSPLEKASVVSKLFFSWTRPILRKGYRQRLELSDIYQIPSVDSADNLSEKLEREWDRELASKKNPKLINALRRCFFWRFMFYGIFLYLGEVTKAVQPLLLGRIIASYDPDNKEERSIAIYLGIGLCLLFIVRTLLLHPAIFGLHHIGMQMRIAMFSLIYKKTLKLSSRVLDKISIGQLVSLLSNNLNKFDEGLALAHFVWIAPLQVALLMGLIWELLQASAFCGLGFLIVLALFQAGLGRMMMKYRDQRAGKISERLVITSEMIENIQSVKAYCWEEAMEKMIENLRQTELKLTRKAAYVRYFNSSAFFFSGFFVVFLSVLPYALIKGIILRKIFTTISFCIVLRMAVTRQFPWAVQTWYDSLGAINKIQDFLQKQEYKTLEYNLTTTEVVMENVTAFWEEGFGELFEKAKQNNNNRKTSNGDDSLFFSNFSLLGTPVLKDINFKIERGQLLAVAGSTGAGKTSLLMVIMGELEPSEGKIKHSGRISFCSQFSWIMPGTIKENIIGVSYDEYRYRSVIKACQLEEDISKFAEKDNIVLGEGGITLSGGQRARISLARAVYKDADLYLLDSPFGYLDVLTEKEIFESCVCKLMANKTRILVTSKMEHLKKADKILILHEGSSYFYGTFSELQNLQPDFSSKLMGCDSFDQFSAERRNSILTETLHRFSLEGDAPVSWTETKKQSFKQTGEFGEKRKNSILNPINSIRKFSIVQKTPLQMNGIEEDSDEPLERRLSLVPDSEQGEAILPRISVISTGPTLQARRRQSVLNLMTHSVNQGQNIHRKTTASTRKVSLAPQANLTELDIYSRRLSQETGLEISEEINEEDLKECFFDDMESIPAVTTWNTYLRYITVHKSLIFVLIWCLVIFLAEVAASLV
- Sequence (P13569 919-1480 limits assumed, stated change not applied): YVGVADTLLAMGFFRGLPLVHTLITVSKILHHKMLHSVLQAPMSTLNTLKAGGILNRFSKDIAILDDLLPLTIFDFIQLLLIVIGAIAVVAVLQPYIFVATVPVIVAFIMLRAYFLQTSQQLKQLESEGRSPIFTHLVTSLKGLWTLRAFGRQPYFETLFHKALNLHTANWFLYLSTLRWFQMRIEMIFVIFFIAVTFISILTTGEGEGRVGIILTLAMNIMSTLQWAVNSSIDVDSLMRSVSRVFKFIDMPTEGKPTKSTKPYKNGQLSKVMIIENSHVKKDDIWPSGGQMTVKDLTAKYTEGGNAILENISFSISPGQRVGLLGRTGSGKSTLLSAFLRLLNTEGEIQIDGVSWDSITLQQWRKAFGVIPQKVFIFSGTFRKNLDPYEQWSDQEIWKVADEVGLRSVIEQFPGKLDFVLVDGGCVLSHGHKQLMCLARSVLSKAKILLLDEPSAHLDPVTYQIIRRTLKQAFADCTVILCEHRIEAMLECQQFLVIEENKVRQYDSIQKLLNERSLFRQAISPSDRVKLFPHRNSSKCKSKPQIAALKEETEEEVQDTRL
- Assay Method Text: Cell Surface Expression-Horse Radish Peroxidase (CSE-HRP) Assay
- Type: cell-based
- Experimental Setup: maximum at any tested concentration, normalized to on-plate positive control (3 μM)
Your answer is read as %, so omit the unit and give the number.

Compound	Unit Descriptor	Maximum % activity (%)
COc1ccc2c(c1)O[C@H](COCc1ccccc1)C[C@@H]2NC(=O)[C@@]1(C)COc2cc3c(cc21)OC(F)(F)O3	%	86
COc1ccc2c(c1)O[C@H](C1CCC(C(=O)O)CC1)C[C@@H]2NC(=O)[C@]1(C)COc2cc3c(cc21)OC(F)(F)O3 (stereo partly drawn)	%	115
COc1ccc2c(c1)O[C@@H](c1ccc(C(=O)O)cc1)C[C@H]2NC(=O)[C@@]1(C)CCc2cc3c(cc21)OC(F)(F)O3 (single isomer, unassigned)	%	75

Entry C[C@]1(C(=O)Nc2cccc(-c3cccc(C(=O)O)c3)n2)COc2cc3c(cc21)OC(F)(F)O3 ; Maximum % activity (%) = 117

Entry Cc1ccc(-c2cccc(C(=O)O)c2)nc1NC(=O)[C@@]1(C)COc2cc3c(cc21)OC(F)(F)O3 ; Maximum % activity (%) = 46

Entry COC(=O)c1ccc([C@H]2C[C@@H](NC(=O)[C@]3(C)COc4cc5c(cc43)OC(F)(F)O5)c3ccc(OC)cc3O2)cc1 ; Maximum % activity (%) = 31

Entry COc1ccc2c(c1)O[C@@H](c1cnc([C@@H](O)CO)cn1)C[C@H]2NC(=O)[C@@]1(C)COc2cc3c(cc21)OC(F)(F)O3 (single isomer, unassigned) ; Maximum % activity (%) = 123

Entry CCOC(=O)[C@H]1CC[C@H]([C@@H]2C[C@H](NC(=O)[C@@]3(C)COc4cc5c(cc43)OC(F)(F)O5)c3ccc(OC(F)(F)F)cc3O2)CC1 ; Maximum % activity (%) = 79

Entry C[C@]1(C(=O)N[C@@H]2C[C@H]([C@H]3CC[C@H](C(=O)N4CCC(F)(F)CC4)CC3)Oc3cc(OC(F)(F)F)ccc32)COc2cc3c(cc21)OC(F)(F)O3 ; Maximum % activity (%) = 229

Entry Cc1ccc(NC(=O)[C@]2(C)COc3cc4c(cc32)OC(F)(F)O4)nc1-c1cccc(C(=O)O)c1 ; Maximum % activity (%) = 12

Entry CC(C)(CO)c1cc2cc(NC(=O)[C@@]3(C)COc4cc5c(cc43)OC(F)(F)O5)c(F)cc2n1C[C@@H](O)CO ; Maximum % activity (%) = 105

Entry C[C@]1(C(=O)N[C@H]2C[C@@H](C3CCN(C(=O)OCc4ccccc4)CC3)Oc3cc(OC(F)(F)F)ccc32)COc2cc3c(cc21)OC(F)(F)O3 ; Maximum % activity (%) = 54

----------
- System Tested: F508delCFTR cell surface expression in CFBE41o-F508delCFTR-HRP cells (Homo sapiens, UniProt P13569, DEL508-508)
- Construct: fused on or other part: Horseradish peroxidase (HRP) reporter inserted in the fourth exofacial (extracellular) loop of CFTR; expression is doxycycline-inducible
- Assay Method Text: Cell Surface Expression-Horse Radish Peroxidase (CSE-HRP) Assay
- Experimental Setup: CFBE41o-F508delCFTR-HRP cells, 18-24 hours at 33° C., 8-point curve, highest concentration 20 μM
Assay Endpoint: pEC50
Give only the number. pEC50 is defined as minus log10 of concentration in molar units.

Molecule	pEC50
CC1(C(=O)N[C@@H]2C[C@H](c3cccc(C(=O)O)c3)Oc3ccccc32)CCc2cc3c(cc21)OC(F)(F)O3 (stereo partly drawn) [Example 35]	6.03

Could you now look at the following molecule, please?
Entry CC(C)(CO)[C@H]1Cc2cc(NC(=O)[C@@]3(C)COc4cc5c(cc43)OC(F)(F)O5)c(F)cc2N1C[C@@H](O)CO (single isomer, unassigned) [Example 140] ; pEC50 = 5.89
